Data credit: ChEMBL document CHEMBL4325852

test_target: UniProt:P08183
Sequence (P08183 whole entry): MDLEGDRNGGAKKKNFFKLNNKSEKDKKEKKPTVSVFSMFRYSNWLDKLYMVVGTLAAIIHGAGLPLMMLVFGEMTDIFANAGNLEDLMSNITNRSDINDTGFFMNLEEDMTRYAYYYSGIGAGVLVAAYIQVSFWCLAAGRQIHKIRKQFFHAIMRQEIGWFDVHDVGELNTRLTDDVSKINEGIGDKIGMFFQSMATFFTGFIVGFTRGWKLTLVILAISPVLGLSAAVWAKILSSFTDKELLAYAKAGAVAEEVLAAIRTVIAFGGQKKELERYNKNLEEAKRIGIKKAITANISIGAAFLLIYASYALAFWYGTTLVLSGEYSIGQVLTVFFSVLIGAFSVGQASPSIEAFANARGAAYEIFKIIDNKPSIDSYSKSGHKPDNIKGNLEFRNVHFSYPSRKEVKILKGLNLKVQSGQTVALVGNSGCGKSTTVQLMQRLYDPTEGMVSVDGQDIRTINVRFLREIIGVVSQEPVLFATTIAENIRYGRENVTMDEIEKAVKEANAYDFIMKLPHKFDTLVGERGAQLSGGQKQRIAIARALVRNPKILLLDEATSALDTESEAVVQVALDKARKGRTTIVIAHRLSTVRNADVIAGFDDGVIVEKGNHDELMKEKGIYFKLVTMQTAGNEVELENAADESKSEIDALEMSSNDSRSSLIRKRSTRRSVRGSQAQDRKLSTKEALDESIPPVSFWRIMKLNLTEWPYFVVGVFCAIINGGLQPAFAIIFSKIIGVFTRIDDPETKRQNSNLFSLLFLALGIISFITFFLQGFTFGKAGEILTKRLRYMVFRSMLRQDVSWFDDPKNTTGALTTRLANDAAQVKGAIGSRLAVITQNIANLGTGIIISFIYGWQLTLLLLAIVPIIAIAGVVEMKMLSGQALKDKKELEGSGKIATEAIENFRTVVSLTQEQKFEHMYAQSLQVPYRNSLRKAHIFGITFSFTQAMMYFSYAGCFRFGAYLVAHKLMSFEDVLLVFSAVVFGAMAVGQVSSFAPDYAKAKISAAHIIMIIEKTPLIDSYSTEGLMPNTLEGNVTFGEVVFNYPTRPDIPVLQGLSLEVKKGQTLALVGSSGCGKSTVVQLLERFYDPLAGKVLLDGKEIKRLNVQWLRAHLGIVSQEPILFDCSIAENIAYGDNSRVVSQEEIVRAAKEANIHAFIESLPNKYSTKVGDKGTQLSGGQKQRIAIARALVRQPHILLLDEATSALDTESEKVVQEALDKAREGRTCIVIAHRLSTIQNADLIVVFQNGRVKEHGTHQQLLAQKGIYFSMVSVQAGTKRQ
measurement_notes: Reversal of P-gp-mediated multidrug resistance in human KBV cells assessed as potentiation of paclitaxel-induced cytotoxicity by measuring cell survival at 10 uM after 72 hrs by MTT assay (reference value: 104 +/- 8%)
Type: cell-based
Entries and their Survival values follow.
Unit % implied. Number only.

Guide cases for Survival, answers given:
CC(C)(C)OC(=O)NCCCCCCCC(=O)N[C@H]1CC[C@]2(C)[C@H]3C[C@@H](O)[C@@H]4[C@@H]([C@]5(C)CC[C@H](C(C)(C)O)O5)CC[C@@]4(C)[C@]3(C)CC[C@H]2C1(C)C; 39
CC(C)(O)[C@H]1CC[C@@](C)([C@H]2CC[C@]3(C)[C@@H]2[C@H](O)C[C@@H]2[C@@]4(C)CC[C@H](NC(=O)c5ccccc5)C(C)(C)[C@@H]4CC[C@]23C)O1; 39

State the recorded Survival for this entry: CC(C)(O)[C@@H]1CC[C@@](C)([C@H]2CC[C@]3(C)[C@@H]2[C@H](O)C[C@@H]2[C@@]4(C)CC[C@H](O)C(C)(C)[C@@H]4CC[C@]23C)O1
104

Recorded Survival of CC(C)(O)[C@H]1CC[C@@](C)([C@H]2CC[C@]3(C)[C@@H]2[C@H](O)C[C@@H]2[C@@]4(C)CC[C@H](NC(=O)CCCCCCCN)C(C)(C)[C@@H]4CC[C@]23C)O1 , please.
38

Which Survival is listed for CC(C)(O)[C@@H]1CC[C@@](C)([C@H]2CC[C@]3(C)[C@@H]2[C@H](O)C[C@@H]2[C@@]4(C)CC[C@H](NC(=O)CCCCCCCN)C(C)(C)[C@@H]4CC[C@]23C)O1 ?
76

// Survival lookup, key: CC(C)(C)OC(=O)NCCCC(=O)N[C@H]1CC[C@]2(C)[C@H]3C[C@@H](O)[C@@H]4[C@@H]([C@]5(C)CC[C@H](C(C)(C)O)O5)CC[C@@]4(C)[C@]3(C)CC[C@H]2C1(C)C
34

Which Survival is reported for this compound? CC(C)(C)OC(=O)NCC(=O)N[C@H]1CC[C@]2(C)[C@H]3C[C@@H](O)[C@@H]4[C@@H]([C@]5(C)CC[C@H](C(C)(C)O)O5)CC[C@@]4(C)[C@]3(C)CC[C@H]2C1(C)C
42

Form field: reported Survival of CC(C)(O)[C@H]1CC[C@@](C)([C@H]2CC[C@]3(C)[C@@H]2[C@H](O)C[C@@H]2[C@@]4(C)CC[C@H](NC(=O)c5ccccc5O)C(C)(C)[C@@H]4CC[C@]23C)O1
40

So what does the record say about Survival for CCCC(=O)N[C@H]1CC[C@]2(C)[C@H]3C[C@@H](O)[C@@H]4[C@@H]([C@]5(C)CC[C@H](C(C)(C)O)O5)CC[C@@]4(C)[C@]3(C)CC[C@H]2C1(C)C ?
55

So what does the record say about Survival for CCCCCC(=O)N[C@H]1CC[C@]2(C)[C@H]3C[C@@H](O)[C@@H]4[C@@H]([C@]5(C)CC[C@@H](C(C)(C)O)O5)CC[C@@]4(C)[C@]3(C)CC[C@H]2C1(C)C ?
44
